Values from patent US10010534B2

test: Short-term (bench-top) stability of GMC1 plasma and urine samples; assay type: physicochemical, rat; conditions: rat urine, bench-top 6 h; read-out: Mean Recovery ± SD, short-term stability
READOUT NAME: recovery at 6 h (%)
// note: answer is a bare numeric in %

The compound identified as COc1ccc(/C=N/NC(=O)CSc2nc3ccccc3[nH]2)cc1 [GMC1] registered its recovery at 6 h at 93.7

* * *

test: Processed sample (on-instrument or auto-sampler) stability; type: physicochemical; conditions: rat, processed plasma sample (methanol extract), plasma extracted with pure methanol, 2 h; read-out: Mean Recovery ± SD, auto-sampler stability, No IS
READOUT NAME: recovery at 2 h (%)
// note: answer is a bare numeric in %

The compound identified as COc1ccc(/C=N/NC(=O)CSc2nc3ccccc3[nH]2)cc1 registered its recovery at 2 h at 94.7

* * *

Experiment: Solubility of GMC1 in selected solvents by the shaker method
Format: physicochemical
Conditions: oleic acid, oil or lipid, thermodynamic from solid, Oleic Acid, room temperature, read-out: Mean Solubility ± SD
Experimental: Solubility information in various solvents is important in developing a suitable intravenous formulation of GMC1 for preclinical and clinical studies. The solubility of GMC1 in water, ethanol, polyethylene glycol 300 and 400, propylene glycol monocapryrate type I (Capyrol 90®), dimethyl sulfoxide (DMSO), dimethyl acetamide (DMA), Tween 80®, Labrasol®, Labrafac®, soybean oil, and oleic acid were determined by the shaker method. […]
READOUT NAME: solubility at 72 h (µg/mL)
// note: answer is a bare numeric in µg/mL

The compound identified as COc1ccc(/C=N/NC(=O)CSc2nc3ccccc3[nH]2)cc1 [GMC1] registered its solubility at 72 h at 2200

* * *

Assay: Processed sample (on-instrument or auto-sampler) stability
Assay type: physicochemical
Conditions: rat, processed urine sample (methanol extract), urine extracted with pure methanol, 4 h; read-out: Mean Recovery ± SD, auto-sampler stability, No IS
Procedure: The stability of processed samples (on-instrument or auto-sampler stability) was also evaluated by comparing freshly prepared plasma and urine QC samples to samples placed on the auto-sampler for 2, 4, and 6 h respectively. One set of the plasma and urine QC samples was extracted with methanol containing IS, and another set with pure methanol without IS.
READOUT NAME: recovery at 4 h (%)
// note: answer is a bare numeric in %

The molecule identified as COc1ccc(/C=N/NC(=O)CSc2nc3ccccc3[nH]2)cc1 registered its recovery at 4 h at 89.7

* * *

experiment: Solubility of GMC1 in selected solvents by the shaker method; format: physicochemical; conditions: DMSO, organic solvent or mixture, thermodynamic from solid, DMSO, room temperature, read-out: Mean Solubility ± SD
READOUT NAME: solubility at 72 h

The compound identified as COc1ccc(/C=N/NC(=O)CSc2nc3ccccc3[nH]2)cc1 [GMC1] registered its solubility at 72 h at ≥ 100 mg/mL

* * *

test: Processed sample (on-instrument or auto-sampler) stability; type: physicochemical; conditions: rat, processed urine sample (methanol extract), urine extracted with pure methanol, 2 h; read-out: Mean Recovery ± SD, auto-sampler stability, No IS
READOUT NAME: recovery at 2 h
A complete answer gives the number followed by the unit.

The compound identified as COc1ccc(/C=N/NC(=O)CSc2nc3ccccc3[nH]2)cc1 registered its recovery at 2 h at 96.1%

* * *

assay: Freeze-thaw cycle stability of GMC1 plasma and urine samples; type: physicochemical, rat; conditions: rat plasma, 200 ng/mL, three cycles; read-out: Mean Recovery ± SD, freeze-thaw cycle stability
READOUT NAME: recovery at 200 ng/mL (%)
// note: answer is a bare numeric in %

The compound identified as COc1ccc(/C=N/NC(=O)CSc2nc3ccccc3[nH]2)cc1 registered its recovery at 200 ng/mL at 98.5

* * *

assay: Short-term (bench-top) stability of GMC1 plasma and urine samples; type: physicochemical, rat; conditions: rat plasma, bench-top 6 h; read-out: Mean Recovery ± SD, short-term stability
READOUT NAME: recovery at 6 h (%)
// note: answer is a bare numeric in %

The compound identified as COc1ccc(/C=N/NC(=O)CSc2nc3ccccc3[nH]2)cc1 registered its recovery at 6 h at 80.1

* * *

assay: Solubility of GMC1 in selected solvents by the shaker method; assay type: physicochemical; conditions: dimethyl acetamide, organic solvent or mixture, thermodynamic from solid, Dimethyl acetamide, room temperature, read-out: Mean Solubility ± SD
READOUT NAME: solubility at 72 h

The compound identified as COc1ccc(/C=N/NC(=O)CSc2nc3ccccc3[nH]2)cc1 registered its solubility at 72 h at ≥ 100 mg/mL

* * *

assay: Short-term (bench-top) stability of GMC1 plasma and urine samples; format: physicochemical, rat; details: rat plasma, bench-top 2 h; read-out: Mean Recovery ± SD, short-term stability
READOUT NAME: recovery at 2 h (%)
// note: answer is a bare numeric in %

The compound identified as COc1ccc(/C=N/NC(=O)CSc2nc3ccccc3[nH]2)cc1 [GMC1] registered its recovery at 2 h at 97.4

* * *

assay: Processed sample (on-instrument or auto-sampler) stability; assay type: physicochemical; conditions: rat, processed urine sample (methanol extract), urine extracted with methanol containing IS, 4 h; read-out: Mean Recovery ± SD, auto-sampler stability, With IS
READOUT NAME: recovery at 4 h (%)
// note: answer is a bare numeric in %

The compound identified as COc1ccc(/C=N/NC(=O)CSc2nc3ccccc3[nH]2)cc1 [GMC1] registered its recovery at 4 h at 98.5

* * *

experiment: Processed sample (on-instrument or auto-sampler) stability; type: physicochemical; details: rat, processed plasma sample (methanol extract), plasma extracted with pure methanol, 4 h; read-out: Mean Recovery ± SD, auto-sampler stability, No IS
READOUT NAME: recovery at 4 h (%)
// note: answer is a bare numeric in %

The compound identified as COc1ccc(/C=N/NC(=O)CSc2nc3ccccc3[nH]2)cc1 registered its recovery at 4 h at 99.7

* * *

test: Processed sample (on-instrument or auto-sampler) stability; format: physicochemical; details: rat, processed plasma sample (methanol extract), plasma extracted with methanol containing IS, 6 h; read-out: Mean Recovery ± SD, auto-sampler stability, With IS
READOUT NAME: recovery at 6 h (%)
// note: answer is a bare numeric in %

The molecule identified as COc1ccc(/C=N/NC(=O)CSc2nc3ccccc3[nH]2)cc1 [GMC1] registered its recovery at 6 h at 96.2

* * *

test: Pharmacokinetic study of the GMC1 co-solvent formulation, IV bolus; type: in vivo, male Sprague Dawley rats; conditions: male, Sprague Dawley, rat, plasma, iv, 2 mg/kg, single 2 mg/kg IV bolus, three compartment model, read-out: T1/2β (elimination half-life of β-phase)
READOUT NAME: half-life

The compound identified as COc1ccc(/C=N/NC(=O)CSc2nc3ccccc3[nH]2)cc1 [GMC1] registered its half-life at 1.23 h

* * *

experiment: Processed sample (on-instrument or auto-sampler) stability; format: physicochemical; conditions: rat, processed urine sample (methanol extract), urine extracted with pure methanol, 6 h; read-out: Mean Recovery ± SD, auto-sampler stability, No IS
READOUT NAME: recovery at 6 h (%)
// note: answer is a bare numeric in %

The molecule identified as COc1ccc(/C=N/NC(=O)CSc2nc3ccccc3[nH]2)cc1 registered its recovery at 6 h at 95.2

* * *

test: Freeze-thaw cycle stability of GMC1 plasma and urine samples; assay type: physicochemical, rat; details: rat plasma, 400 ng/mL, three cycles; read-out: Mean Recovery ± SD, freeze-thaw cycle stability
READOUT NAME: recovery at 400 ng/mL (%)
// note: answer is a bare numeric in %

The compound identified as COc1ccc(/C=N/NC(=O)CSc2nc3ccccc3[nH]2)cc1 registered its recovery at 400 ng/mL at 94.1

* * *

experiment: Pharmacokinetic study of the GMC1 co-solvent formulation, IV bolus; type: in vivo, male Sprague Dawley rats; details: male, Sprague Dawley, plasma; rat, single 2 mg/kg IV bolus, three compartment model
READOUT NAME: AUC(0-inf) (ng·h/mL)
// note: answer is a bare numeric in ng·h/mL

The compound identified as COc1ccc(/C=N/NC(=O)CSc2nc3ccccc3[nH]2)cc1 [GMC1] registered its AUC(0-inf) at 3900

* * *

experiment: Freeze-thaw cycle stability of GMC1 plasma and urine samples; assay type: physicochemical, rat; conditions: rat urine, 10 ng/mL, three cycles; read-out: Mean Recovery ± SD, freeze-thaw cycle stability
READOUT NAME: recovery at 10 ng/mL (%)
// note: answer is a bare numeric in %

The compound identified as COc1ccc(/C=N/NC(=O)CSc2nc3ccccc3[nH]2)cc1 registered its recovery at 10 ng/mL at 113

* * *

test: Processed sample (on-instrument or auto-sampler) stability; type: physicochemical; conditions: rat, processed plasma sample (methanol extract), plasma extracted with pure methanol, 6 h; read-out: Mean Recovery ± SD, auto-sampler stability, No IS
READOUT NAME: recovery at 6 h
A complete answer gives the number followed by the unit.

The compound identified as COc1ccc(/C=N/NC(=O)CSc2nc3ccccc3[nH]2)cc1 registered its recovery at 6 h at 98.4%
